Data provenance is patent US11691968B2.

# test_method_notes: Metabolic Stability in Human Liver Microsomes
# Type: in vitro ADME
# cond: human, microsomes, 1 h
reported_metric: Metabolic stability in human liver microsomes (% remaining at 60 min)
Number plus unit, in that order.

Please report the recorded Metabolic stability in human liver microsomes (% remaining at 60 min) for C[C@@H](c1ccc(C#N)cc1)n1cnc(C(=O)N2C[C@@H]3[C@H](C2)[C@H]3C2=NOC(C)(C)C2)c1 [Example 24] .
101%

Please report the recorded Metabolic stability in human liver microsomes (% remaining at 60 min) for CC(C)c1cc(C(=O)N2C[C@@H]3[C@H](C2)[C@H]3c2nncn2-c2ccccc2)n[nH]1 [Example 121] .
114%

Please report the recorded Metabolic stability in human liver microsomes (% remaining at 60 min) for CCN1C([C@H]2[C@@H]3CN(C(=O)c4cc(C(C)C)[nH]n4)C[C@@H]32)=NOC1(C)C [Example 110] .
85%
